# subject-of-test: T1, human CD73-His protein (human, UniProt P21589 27-549)
# T1 construct: Expressed in HEK-293F with a signal peptide that is not specified; In the ELISAs it was biotinylated with EZ-Link NHS-Biotin (CD73-biotin) and captured on streptavidin; in SPR and the enzyme assay it was used as CD73-His; also called CD73-his antigen; CD73-biotin
# T1 sequence: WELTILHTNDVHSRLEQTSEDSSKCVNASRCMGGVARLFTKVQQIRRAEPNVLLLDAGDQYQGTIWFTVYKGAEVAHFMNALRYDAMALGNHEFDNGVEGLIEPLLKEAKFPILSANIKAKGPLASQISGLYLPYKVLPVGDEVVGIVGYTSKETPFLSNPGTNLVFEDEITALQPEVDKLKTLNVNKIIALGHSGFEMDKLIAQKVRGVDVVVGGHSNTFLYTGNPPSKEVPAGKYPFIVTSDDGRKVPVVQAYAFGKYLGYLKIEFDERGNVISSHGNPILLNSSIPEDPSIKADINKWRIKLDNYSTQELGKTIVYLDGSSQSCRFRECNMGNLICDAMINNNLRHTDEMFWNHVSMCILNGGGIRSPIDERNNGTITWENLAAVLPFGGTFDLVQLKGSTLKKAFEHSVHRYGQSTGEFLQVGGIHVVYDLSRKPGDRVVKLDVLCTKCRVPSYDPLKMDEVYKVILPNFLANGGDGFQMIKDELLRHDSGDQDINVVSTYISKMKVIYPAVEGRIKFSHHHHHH
# assay-comment: ELISA, biotinylated CD73-His on streptavidin plate
# Procedure: The ELISA plates were coated with SA protein diluted to 1.5 μg/mL in coating buffer (50 mM carbonate coating buffer, pH 9.6) and incubated overnight at 4° C. The supernatant was discarded, and the plates were washed three times with PBST. […] The OD values were read at 450 nm using a multimode microplate reader to analyze the binding ability of the tested antibodies to the target antigen human CD73-His.
test-readout: EC50 (µg/mL)
Return type: number; implicit unit µg/mL.

INPUT: Recorded EC50 for 48A11 (antibody, V domains shown, Murine hybridoma antibody; also called murine-derived antibody 48A11) VH: QVQLQQPGAELVKPGASVKLSCKASGYTFTSYWMHWVKQRPGQGLEWIGEINPSIGRTNYNEKFKSKATLTVDKSSSTAFMQLSSLTSEDSAVYYCARRVYGTMDYWGQGTSVTVSS VL: DIKMTQSPSSMYASLGERVTITCKASQDINSYLSWFQQKPGKSPKTLIYRANIWVDGVPSRFSGSGSGQDYSLTISSLEYEDMGIYYCLQYDELYTFGGGTKLEIK , please?
OUTPUT: 0.0197
